Here, each record is paired with measured % bound data.
- studySystem: T1, human collagen type I, acid soluble, extracted from placenta (Sigma C7774) (human, UniProt P02452 162-1218; P08123 80-1119)
- T1 construct: tissue extract, gelled and dried in wells; also called dried human collagen; h-Collagen
- T1 sequence (P02452 162-1218 limits assumed, chain 1 of 2): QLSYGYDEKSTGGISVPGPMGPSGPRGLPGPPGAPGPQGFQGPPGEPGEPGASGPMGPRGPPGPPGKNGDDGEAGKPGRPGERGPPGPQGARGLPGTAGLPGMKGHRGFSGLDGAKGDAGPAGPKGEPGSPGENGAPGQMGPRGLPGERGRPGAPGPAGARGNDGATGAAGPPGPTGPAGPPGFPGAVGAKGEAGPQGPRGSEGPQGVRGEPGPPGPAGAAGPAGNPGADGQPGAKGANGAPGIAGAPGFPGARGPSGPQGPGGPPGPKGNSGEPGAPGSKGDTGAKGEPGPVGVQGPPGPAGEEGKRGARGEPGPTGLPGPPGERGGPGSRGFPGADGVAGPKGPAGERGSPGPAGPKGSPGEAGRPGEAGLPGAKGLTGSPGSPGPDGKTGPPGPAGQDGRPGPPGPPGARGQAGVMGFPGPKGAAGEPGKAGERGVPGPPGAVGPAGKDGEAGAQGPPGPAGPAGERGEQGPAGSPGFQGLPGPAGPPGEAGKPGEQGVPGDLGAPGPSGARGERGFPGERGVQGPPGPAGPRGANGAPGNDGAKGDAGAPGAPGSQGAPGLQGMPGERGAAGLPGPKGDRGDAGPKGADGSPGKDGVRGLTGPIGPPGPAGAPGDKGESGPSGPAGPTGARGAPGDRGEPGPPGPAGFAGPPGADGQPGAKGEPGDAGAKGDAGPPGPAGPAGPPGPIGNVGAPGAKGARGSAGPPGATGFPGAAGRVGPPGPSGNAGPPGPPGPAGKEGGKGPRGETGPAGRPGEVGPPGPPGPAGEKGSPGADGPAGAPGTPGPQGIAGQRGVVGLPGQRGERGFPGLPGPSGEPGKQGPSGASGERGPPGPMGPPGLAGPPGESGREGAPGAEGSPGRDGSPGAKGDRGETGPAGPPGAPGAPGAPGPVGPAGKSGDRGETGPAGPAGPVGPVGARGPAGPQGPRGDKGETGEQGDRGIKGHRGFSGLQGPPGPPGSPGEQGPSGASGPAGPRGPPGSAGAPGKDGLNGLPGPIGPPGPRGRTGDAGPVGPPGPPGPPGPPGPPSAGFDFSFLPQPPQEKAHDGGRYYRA
- T1 sequence (P08123 80-1119 limits assumed, chain 2 of 2): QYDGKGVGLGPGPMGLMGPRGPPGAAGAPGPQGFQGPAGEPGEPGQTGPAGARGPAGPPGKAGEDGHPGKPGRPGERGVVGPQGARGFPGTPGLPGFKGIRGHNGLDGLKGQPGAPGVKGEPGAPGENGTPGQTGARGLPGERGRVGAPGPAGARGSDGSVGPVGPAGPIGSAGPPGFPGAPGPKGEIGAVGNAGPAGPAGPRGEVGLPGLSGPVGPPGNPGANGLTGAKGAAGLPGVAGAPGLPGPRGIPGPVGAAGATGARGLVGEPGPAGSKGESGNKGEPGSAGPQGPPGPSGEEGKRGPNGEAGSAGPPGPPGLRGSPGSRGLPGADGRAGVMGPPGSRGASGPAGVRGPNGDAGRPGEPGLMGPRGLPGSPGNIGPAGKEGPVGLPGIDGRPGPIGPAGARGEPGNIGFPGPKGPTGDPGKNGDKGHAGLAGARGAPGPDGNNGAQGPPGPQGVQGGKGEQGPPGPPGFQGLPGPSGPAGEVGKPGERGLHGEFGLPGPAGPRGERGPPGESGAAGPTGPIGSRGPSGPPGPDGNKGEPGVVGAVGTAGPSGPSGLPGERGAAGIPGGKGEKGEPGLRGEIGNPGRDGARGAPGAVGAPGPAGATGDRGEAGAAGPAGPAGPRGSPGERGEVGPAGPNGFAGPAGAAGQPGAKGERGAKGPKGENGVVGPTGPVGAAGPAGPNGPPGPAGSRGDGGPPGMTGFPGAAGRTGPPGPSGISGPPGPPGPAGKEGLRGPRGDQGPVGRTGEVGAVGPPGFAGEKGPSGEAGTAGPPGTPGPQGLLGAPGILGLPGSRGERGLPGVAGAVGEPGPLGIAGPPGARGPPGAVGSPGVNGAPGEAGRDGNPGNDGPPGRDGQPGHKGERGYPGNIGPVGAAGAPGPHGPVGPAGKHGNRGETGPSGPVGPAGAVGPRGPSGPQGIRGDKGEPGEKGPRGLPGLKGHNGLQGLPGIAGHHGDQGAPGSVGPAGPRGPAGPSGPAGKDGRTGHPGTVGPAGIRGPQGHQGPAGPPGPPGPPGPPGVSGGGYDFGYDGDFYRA
- protocolDetails: dried collagen assay; also: test concentration or dose not given here
Bridge positions count the residues as written; N and C are the ends. Square brackets hold non-standard residues; d marks the D form. Ends that are not written are not given here.
Dear colleague, please return just the value in %, with no unit written.

INSERT INTO results (binder, observedmeasurement) VALUES
  ('QWTCSGD[dE]YTWHCNYE (disulfide 4-13 (inferred); not fully specified (N-terminus); printed as QWTCSGDeYTWHCNYE, cyclic, disulfide) [SEQ ID NO 170]', 49),
  ('GQWTCSGDEYTWACNYE (disulfide 5-14 (inferred); not fully specified (C-terminus), cyclic, disulfide) [SEQ ID NO 148]', 66),
  ('DWECHGNEFEWNCLMR (disulfide 4-13 (inferred), cyclic, disulfide) [SEQ ID NO 22]', 55),
  ('SWHCFGDNENWMCNLR (disulfide 4-13 (inferred), cyclic, disulfide) [SEQ ID NO 27]', 24);

Would you kindly look at the next entry?
Ask: I am curious: what % bound value has been reported for MWDCTGNSAEWRCEMQ (disulfide 4-13 (inferred), cyclic, disulfide) [SEQ ID NO 34] ?
Result: 11
